Record: IC50 reported on purified wild type MGL (wt-MGLL 6H-11-313) (Homo sapiens, UniProt Q99685).
Sequence (Q99685 whole entry): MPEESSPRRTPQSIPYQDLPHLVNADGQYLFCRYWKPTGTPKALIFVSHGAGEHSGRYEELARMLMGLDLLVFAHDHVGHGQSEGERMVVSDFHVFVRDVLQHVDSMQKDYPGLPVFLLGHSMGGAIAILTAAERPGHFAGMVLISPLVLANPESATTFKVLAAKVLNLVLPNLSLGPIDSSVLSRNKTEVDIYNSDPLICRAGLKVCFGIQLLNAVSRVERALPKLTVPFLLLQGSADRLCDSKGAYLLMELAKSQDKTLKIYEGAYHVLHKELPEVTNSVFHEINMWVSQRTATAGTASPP
metric: IC50

>  <compound>
O=C(c1ccc(Cc2ccc(C(F)(F)F)cc2)cc1)N1CCC(C2CN(C(=O)c3ccc[nH]3)C2)CC1 [Cpd 65]

>  <measurement>
< 5 nM

$$$$
>  <compound>
O=C(c1ccc2nc(-c3ccccc3)oc2c1)N1CC(C2CCN(C(=O)c3nccs3)CC2)C1 [Cpd 28]

>  <measurement>
16.4 nM

$$$$
>  <compound>
O=C(c1nccs1)N1CC(C2CCN(C(=O)c3sc4cc(C(F)(F)F)ccc4c3Cl)CC2)C1 [Cpd 69]

>  <measurement>
< 5 nM

$$$$
>  <compound>
O=C(c1ccc(-c2ccc(C(F)(F)F)s2)cc1)N1CCC(C2CN(C(=O)c3nccs3)C2)CC1 [Cpd 54]

>  <measurement>
< 5 nM

$$$$
>  <compound>
O=C(c1ccc2c(ccn2-c2ccc(F)c(F)c2)c1)N1CC(C2CCN(C(=O)c3nccs3)CC2)C1

>  <measurement>
< 5 nM

$$$$
>  <compound>
O=C(c1nccs1)N1CCC(C2CN(C(=O)c3ccc(-c4ccccc4)cc3F)C2)CC1 [Cpd 15]

>  <measurement>
7 nM

$$$$
>  <compound>
O=C(c1cscn1)N1CCC(C2CN(C(=O)c3sc4cc(C(F)(F)F)ccc4c3Cl)C2)CC1 [Cpd 35]

>  <measurement>
< 5 nM

$$$$
>  <compound>
O=C(c1ccc2c(ccn2-c2ccc(F)cc2)c1)N1CCC(C2CN(C(=O)c3nccs3)C2)CC1 [Cpd 72]

>  <measurement>
17 nM

$$$$

Entry source: patent US8513423B2
